Target: IKKε (Homo sapiens, UniProt Q14164)
Construct: His-tag; made in house; host or cells: Sf9 insect cells
Sequence (Q14164 whole entry): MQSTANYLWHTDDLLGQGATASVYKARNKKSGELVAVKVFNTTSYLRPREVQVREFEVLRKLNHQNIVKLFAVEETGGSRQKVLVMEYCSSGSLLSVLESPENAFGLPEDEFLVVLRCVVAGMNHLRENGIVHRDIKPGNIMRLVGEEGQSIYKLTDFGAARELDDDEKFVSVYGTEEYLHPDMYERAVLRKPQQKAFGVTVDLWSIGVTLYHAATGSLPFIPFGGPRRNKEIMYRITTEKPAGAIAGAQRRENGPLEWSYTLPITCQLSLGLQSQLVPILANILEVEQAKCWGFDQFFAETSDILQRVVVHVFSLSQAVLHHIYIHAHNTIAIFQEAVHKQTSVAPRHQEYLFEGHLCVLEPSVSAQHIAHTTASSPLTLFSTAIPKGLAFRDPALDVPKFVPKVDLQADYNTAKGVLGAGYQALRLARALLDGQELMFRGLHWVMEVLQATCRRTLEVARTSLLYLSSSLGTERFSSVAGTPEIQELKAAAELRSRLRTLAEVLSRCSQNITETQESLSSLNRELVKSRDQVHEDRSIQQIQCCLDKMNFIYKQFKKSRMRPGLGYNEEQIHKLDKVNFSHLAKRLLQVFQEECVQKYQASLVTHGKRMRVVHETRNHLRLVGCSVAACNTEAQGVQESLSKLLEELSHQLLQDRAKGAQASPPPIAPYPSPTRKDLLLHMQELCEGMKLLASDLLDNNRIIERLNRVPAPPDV
Experiment: In-vitro IKKε kinase assay ([γ33]ATP filter-plate)
Assay type: biochemical
Settings: text bins; read-out: IC50 for inhibition of the kinase activity of IKKε
pIC50: −log10 of the molar value.
measured metric: pIC50

[[record]]
molecule = "COc1cc(NC(=O)NCCO)cc(Nc2nccc(-c3ccc(OC)c(C#N)c3)n2)c1"
target_desc = "IKKε (Homo sapiens, UniProt Q14164)"
measured_metric = "pIC50"
measured_result = "7.30 to 8.30"

[[record]]
molecule = "CC(C)C(=O)Nc1ccc(-c2ccnc(Nc3ccc(C(C)C(=O)N4CCOCC4)cc3)n2)cc1C#N (stereo not shown)"
target_desc = "IKKε (Homo sapiens, UniProt Q14164)"
measured_metric = "pIC50"
measured_result = "7.30 to 8.30"

[[record]]
molecule = "COc1cc(Nc2nccc(-c3ccc(OC4CCN(C(=O)[C@H](C)O)CC4)c(C#N)c3)n2)ccc1C(=O)NCCN(C)C"
target_desc = "IKKε (Homo sapiens, UniProt Q14164)"
measured_metric = "pIC50"
measured_result = "> 8.30"

[[record]]
molecule = "CCOC(=O)C(C)NCc1ccc(Nc2nccc(-c3ccc(OC4CCOCC4)c(C#N)c3)n2)cc1 (stereo not shown)"
target_desc = "IKKε (Homo sapiens, UniProt Q14164)"
measured_metric = "pIC50"
measured_result = "> 8.30"

[[record]]
molecule = "COc1cc(Nc2nccc(-c3ccc(OC4CCN(C(=O)[C@H](C)O)CC4)c(C#N)c3)n2)ccc1OCCOCCN"
target_desc = "IKKε (Homo sapiens, UniProt Q14164)"
measured_metric = "pIC50"
measured_result = "7.30 to 8.30"

[[record]]
molecule = "COc1cc(Nc2nccc(-c3ccc(OC4CCOCC4)c(C#N)c3)n2)ccc1C(=O)N(C)CCN(C)C"
target_desc = "IKKε (Homo sapiens, UniProt Q14164)"
measured_metric = "pIC50"
measured_result = "> 8.30"


# input molecule: N#Cc1cc(-c2ccnc(Nc3ccc(N4CCOCC4)cc3)n2)ccc1NC(=O)N1CCCCC1 ; wanted: its pIC50
6.30 to 7.30

----------
Below: a set of entries, each annotated with reported pIC50.
Target: IKKε (Homo sapiens, UniProt Q14164)
Construct: His-tag; made in house; host or cells: Sf9 insect cells
Experiment: In-vitro IKKε kinase assay ([γ33]ATP filter-plate)
Format: biochemical
Conditions: text bins; read-out: IC50 for inhibition of the kinase activity of IKKε
pIC50: −log10 of the molar value.

Examples with answers:
[[record]]
molecule = "COc1ccc(-c2ccnc(Nc3cc(CN4CCC[C@H]4C(=O)N(C)C)c(OC)c(OC)c3)n2)cc1C#N"
measured_metric = "pIC50"
measured_result = "6.30 to 7.30"

[[record]]
molecule = "COc1ccc(-c2ccnc(Nc3ccc(N4CCCC4C(=O)N(C)C)c(OC)c3)n2)cc1C#N (centres unmarked)"
measured_metric = "pIC50"
measured_result = "7.30 to 8.30"

[[record]]
molecule = "CCN(CC)CCOc1cc(Nc2nccc(-c3ccc(OC4CCOCC4)c(C#N)c3)n2)ccc1F"
measured_metric = "pIC50"
measured_result = "> 8.30"


Look at this molecule and give its reported pIC50. CN(C)c1cccc(Nc2nccc(-c3ccc(OC4CCOCC4)c(C#N)c3)n2)c1
> 8.30

Tell me the measured pIC50 of N#Cc1cc(-c2ccnc(Nc3ccc(S(N)(=O)=O)cc3)n2)ccc1OC1CCOCC1 , please.
> 8.30

pIC50 for CC(C)(C)c1cccc(Nc2nccc(-c3cccc(C#N)c3)n2)c1 ?
6.30 to 7.30

Name the recorded pIC50 for N#Cc1cc(-c2ccnc(Nc3ccc(N)cc3)n2)ccc1OC1CCOCC1 .
> 8.30

What does the data say about its pIC50? Entry: N#Cc1cc(-c2ccnc(Nc3ccc(CS(=O)(=O)NCCO)cc3)n2)ccc1OCC1CC1
> 8.30
